assay: Metabolic stability in human liver microsomes assessed as compound remaining after 40 mins; type: ADME, Microsome; conditions: read-out: Stability
property name: remaining at 40 min (%)
State the answer as a number, implicitly in %.

Worked set:
INSERT INTO results (smi, property_name, value_units, measured_value) VALUES
  ('C=C(C)[C@@H]1CC[C@]2(C(=O)NCc3ccc4c(c3)OCO4)CC[C@]3(C)[C@H](CC[C@@H]4[C@@]5(C)CC[C@H](OC(=O)CC(C)(C)C(=O)O)C(C)(C)[C@@H]5CC[C@]43C)[C@@H]12', 'remaining at 40 min', '%', 10),
  ('C=C(C)[C@@H]1CC[C@]2(C(=O)NCc3cccc(C(=O)O)c3)CC[C@]3(C)[C@H](CC[C@@H]4[C@@]5(C)CC[C@H](OC(=O)CC(C)(C)C(=O)O)C(C)(C)[C@@H]5CC[C@]43C)[C@@H]12', 'remaining at 40 min', '%', 10);

With those in mind, consider the next molecule.
Challenge: What measured remaining at 40 min goes with C=C(C)[C@@H]1CC[C@]2(C(=O)NCc3ccc(OC(F)(F)F)cc3)CC[C@]3(C)[C@H](CC[C@@H]4[C@@]5(C)CC[C@H](OC(=O)CC(C)(C)C(=O)O)C(C)(C)[C@@H]5CC[C@]43C)[C@@H]12 ?
Response given: 10

Where do the numbers come from? From ChEMBL document CHEMBL1141017.
